- Test system: Pseudomonas aeruginosa 1771
- ASSAY_OVERVIEW: Antibacterial activity, MIC by Agar dilution method, standard test strain 14
- Assay type: cell-based
- EXPERIMENTAL_PARAMETERS: 10^7 CFU/ml, 37° C., 18 hours
READOUT: MIC

MOLECULE	MEAS_VALUE
CON=C(C(=O)NC1C(=O)N2C(C(=O)[O-])=C(C[n+]3nn(N)c4ccccc43)CSC12)c1csc(N)n1 (stereo not drawn) [Example 18]	1.56 µg/mL
CO/N=C(\C(=O)N[C@@H]1C(=O)N2C(C(=O)[O-])=C(C[N+]3(N)CCc4ccccc4C3)CS[C@H]12)c1csc(N)n1 (stereo partly drawn) [Example 5]	50 µg/mL

Please examine the following record next.
Lookup: Using the record for CO/N=C(\C(=O)N[C@@H]1C(=O)N2C(C(=O)O)=C(COC(C)=O)CS[C@H]12)c1csc(N)n1 [Cefotaxime, reference compound] , report its MIC.
Found: 6.25 µg/mL

* * *

I'd be grateful if you could share measured MIC for these entries.
- System: Enterobacter cloacae 1321E
- ASSAY_OVERVIEW: Antibacterial activity, MIC by Agar dilution method, standard test strain 20
- Assay type: cell-based
- EXPERIMENTAL_PARAMETERS: Enterobacter cloacae 1321E; 10^7 CFU/ml, 37° C., 18 hours; read-out: MIC
- Method: The antibacterial activity was determined by an Agar dilution method as described below. That is, the two-fold serial dilutions of the antibacterial compounds (1000 μg compound/ml) were prepared and dispersed in Muller Hinton Agar in a petri dish to a concentration of 100~0.002 μg/ml. The culture broths of standard test strains were inoculated on the medium to a concentration 10^7 CFU/ml, and incubated at 37° C. for 18 hours. […]
One number for each entry, in µg/mL.

Some entries whose results are on file:
COMPOUND	UNITS_LABEL	MIC
CO/N=C(\C(=O)N[C@@H]1C(=O)N2C(C(=O)[O-])=C(C[N+]3(N)CCCC3)CS[C@H]12)c1csc(N)n1	µg/mL	0.098
CO/N=C(\C(=O)N[C@@H]1C(=O)N2C(C(=O)[O-])=C(C[N+]3(N)CCc4ccccc4C3)CS[C@H]12)c1csc(N)n1 (stereo partly shown)	µg/mL	0.013
CO/N=C(\C(=O)N[C@@H]1C(=O)N2C(C(=O)[O-])=C(C[n+]3nn(N)c4ccccc43)CS[C@H]12)c1nsc(N)n1	µg/mL	0.007
CO/N=C(\C(=O)N[C@@H]1C(=O)N2C(C(=O)[O-])=C(CN3CC[N+](C)(N)CC3)CS[C@H]12)c1csc(N)n1	µg/mL	0.195
CO/N=C(\C(=O)N[C@@H]1C(=O)N2C(C(=O)[O-])=C(C[n+]3cn(N)c4ccccc43)CS[C@H]12)c1csc(N)n1	µg/mL	0.195

Hello, I would appreciate it if you could give MIC for each entry below.
1. CC(C)(O/N=C(\C(=O)N[C@@H]1C(=O)N2C(C(=O)[O-])=C(C[n+]3cn(N)cn3)CS[C@H]12)c1csc(N)n1)C(=O)O
2. CO/N=C(\C(=O)N[C@@H]1C(=O)N2C(C(=O)O)=C(COC(C)=O)CS[C@H]12)c1csc(N)n1 [Cefotaxime, reference compound]

Found:
0.391
0.013

* * *

- System: Pseudomonas aeruginosa 1771
- ASSAY_OVERVIEW: Antibacterial activity, MIC by Agar dilution method, standard test strain 14
- Type: cell-based
- EXPERIMENTAL_PARAMETERS: 10^7 CFU/ml, 37° C., 18 hours
READOUT: MIC (µg/mL)
Give bare numbers, in µg/mL.

Some entries whose results are on file:
COMPOUND	READOUT	UNITS_LABEL	MEAS_VALUE
CO/N=C(\C(=O)N[C@@H]1C(=O)N2C(C(=O)[O-])=C(C[n+]3nn(N)c4ccccc43)CS[C@H]12)c1nsc(N)n1 [Example 85]	MIC	µg/mL	1.56
CO/N=C(\C(=O)N[C@@H]1C(=O)N2C(C(=O)[O-])=C(CN3CC[N+](C)(N)CC3)CS[C@H]12)c1csc(N)n1 [Example 11]	MIC	µg/mL	25
CO/N=C(\C(=O)N[C@@H]1C(=O)N2C(C(=O)[O-])=C(C[N+]3(N)CCCC3)CS[C@H]12)c1csc(N)n1 [Example 1]	MIC	µg/mL	50
CC(C)(O/N=C(\C(=O)N[C@@H]1C(=O)N2C(C(=O)[O-])=C(C[n+]3cn(N)cn3)CS[C@H]12)c1csc(N)n1)C(=O)O [Example 36]	MIC	µg/mL	1.56
CO/N=C(\C(=O)N[C@@H]1C(=O)N2C(C(=O)[O-])=C(C[n+]3cn(N)c4ccccc43)CS[C@H]12)c1csc(N)n1 [Example 19]	MIC	µg/mL	12.5

Please examine the following record next.
Lookup: Lab request: please report MIC under test system Pseudomonas aeruginosa 1771 for CO/N=C(\C(=O)N[C@@H]1C(=O)N2C(C(=O)[O-])=C(C[n+]3cn(N)cn3)CS[C@H]12)c1csc(N)n1 [Example 12]
Found: 6.25
